Overview of recorded pIC50 for various molecules
target: CDK9/cyclin T1 (Homo sapiens, UniProt P50750); assay: Inhibition of CDK9/cyclin T1 (unknown origin) in presence of [32P]gammaATP by image analyser
Sequence (O60563 whole entry): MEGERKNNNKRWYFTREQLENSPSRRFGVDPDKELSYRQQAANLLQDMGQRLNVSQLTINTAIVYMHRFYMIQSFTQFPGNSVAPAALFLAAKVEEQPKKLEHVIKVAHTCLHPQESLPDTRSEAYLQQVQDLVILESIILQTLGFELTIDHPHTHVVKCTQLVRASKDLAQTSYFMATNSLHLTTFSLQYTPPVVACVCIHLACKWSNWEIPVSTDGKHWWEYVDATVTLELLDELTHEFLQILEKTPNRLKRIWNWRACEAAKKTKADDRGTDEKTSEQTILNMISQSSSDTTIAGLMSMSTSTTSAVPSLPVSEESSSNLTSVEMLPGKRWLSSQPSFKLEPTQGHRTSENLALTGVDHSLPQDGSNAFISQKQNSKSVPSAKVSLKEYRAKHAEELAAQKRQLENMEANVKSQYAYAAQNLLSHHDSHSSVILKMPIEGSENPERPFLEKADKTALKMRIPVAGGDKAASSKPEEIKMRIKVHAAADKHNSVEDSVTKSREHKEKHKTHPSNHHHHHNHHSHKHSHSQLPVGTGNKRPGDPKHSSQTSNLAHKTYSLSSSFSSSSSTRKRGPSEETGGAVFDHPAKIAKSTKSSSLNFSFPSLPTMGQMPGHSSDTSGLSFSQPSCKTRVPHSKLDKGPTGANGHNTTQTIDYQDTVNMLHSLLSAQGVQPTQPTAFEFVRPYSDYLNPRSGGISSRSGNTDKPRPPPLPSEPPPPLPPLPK
Sequence (P50750 whole entry): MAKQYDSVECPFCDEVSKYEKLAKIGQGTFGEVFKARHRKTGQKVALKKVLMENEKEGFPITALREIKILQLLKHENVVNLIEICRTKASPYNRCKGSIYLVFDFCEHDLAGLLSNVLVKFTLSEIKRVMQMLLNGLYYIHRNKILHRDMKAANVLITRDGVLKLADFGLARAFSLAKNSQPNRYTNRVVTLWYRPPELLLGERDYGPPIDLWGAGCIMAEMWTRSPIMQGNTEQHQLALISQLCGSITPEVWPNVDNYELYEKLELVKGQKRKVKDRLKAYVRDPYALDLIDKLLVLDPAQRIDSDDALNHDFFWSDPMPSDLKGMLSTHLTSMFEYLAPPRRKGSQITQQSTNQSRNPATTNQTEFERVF
The read-out pIC50 is expressed as -log10 of concentration in moles per litre.

Check out these entries, answers already filled in.
[
  {
    "Molecule": "Fc1cc2[nH]ncc2c2c3c(c(-c4c[nH]nc4C(F)(F)F)nc12)CCCC3",
    "pIC50": 6.27
  },
  {
    "Molecule": "Fc1cc2[nH]ncc2c2c3c(c(-c4cn[nH]c4)nc12)CCCC3",
    "pIC50": 6.71
  }
]

Please report the recorded pIC50 for Fc1cc2[nH]ncc2c2c3c(c(-c4c[nH]nc4C(F)(F)F)nc12)C1CCC3C1 (stereo unspecified) . 6.01
